Exercise: for every item that follows, state its recorded pIC50.
- tested_system: ICAM-1 binding to immobilized Mac-1 (Homo sapiens, UniProt P05107+P11215)
- Construct: made in house; host or cells: transfected 293 cells (Mac-1)
- Sequence (P05107 23-769, other chains not shown): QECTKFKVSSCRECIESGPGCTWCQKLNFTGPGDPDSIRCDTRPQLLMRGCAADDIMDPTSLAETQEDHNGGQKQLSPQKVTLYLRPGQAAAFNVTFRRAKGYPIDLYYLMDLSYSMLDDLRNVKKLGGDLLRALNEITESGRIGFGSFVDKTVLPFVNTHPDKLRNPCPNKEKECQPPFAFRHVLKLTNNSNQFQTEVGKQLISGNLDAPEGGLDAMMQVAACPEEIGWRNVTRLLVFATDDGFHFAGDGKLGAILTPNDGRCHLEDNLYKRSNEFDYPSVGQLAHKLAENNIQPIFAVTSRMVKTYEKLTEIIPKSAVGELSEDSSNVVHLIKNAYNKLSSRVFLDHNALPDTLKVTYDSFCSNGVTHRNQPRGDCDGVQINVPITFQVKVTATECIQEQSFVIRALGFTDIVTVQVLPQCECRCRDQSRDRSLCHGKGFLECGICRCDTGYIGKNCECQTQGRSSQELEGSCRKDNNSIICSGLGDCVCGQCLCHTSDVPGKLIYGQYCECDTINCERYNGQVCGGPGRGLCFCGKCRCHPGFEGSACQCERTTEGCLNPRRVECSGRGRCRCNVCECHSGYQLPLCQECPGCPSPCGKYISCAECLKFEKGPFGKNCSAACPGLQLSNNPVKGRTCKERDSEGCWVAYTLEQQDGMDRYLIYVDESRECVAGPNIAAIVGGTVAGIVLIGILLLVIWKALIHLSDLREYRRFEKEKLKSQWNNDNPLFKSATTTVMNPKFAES
- experiment_description: Mac-1/ICAM-1 screening assay (solid-phase ELISA)
- settings: read-out: Mac-1/ICAM-1 Protein-Protein Assay IC50
Counter-ions that a name gives are not always drawn.
Numbers only, as −log10 of the molar value.

O=C(NCc1ccc(C(=O)N[C@@H](CNC(=O)c2ccccc2)C(=O)O)c(Cl)c1)c1cccc(O)c1    6.78
O=C(NCc1cccc(O)c1)c1ccc(C(=O)N[C@@H](CNC(=O)c2cccc(Cl)c2)C(=O)O)c(Cl)c1    8.16
Cc1noc(C)c1CCC(=O)NC[C@H](NC(=O)c1ccc(C(=O)NCc2cccc(O)c2)cc1Cl)C(=O)O    7.36
O=C(NCc1cccc(O)c1)c1ccc(C(=O)N[C@@H](CNC(=O)c2cc(F)c(F)cc2F)C(=O)O)c(Cl)c1    7.62
O=C(NC[C@H](NC(=O)c1c(F)cccc1Cl)C(=O)O)c1ccc(Br)s1    6.42

Parameter requested: pIC50. Apply to each item below.
1. COc1ccccc1C(=O)NC[C@H](NC(=O)c1ccc(C(=O)NCc2cccc(O)c2)cc1Cl)C(=O)O
2. O=C(NCc1cccc(O)c1)c1ccc(C(=O)N[C@@H](CNC(=O)c2cccs2)C(=O)O)c(Cl)c1 [Example 303]
3. COC(=O)c1cccc(C(=O)NC[C@H](NC(=O)c2ccc(C(=O)NCc3cccc(O)c3)cc2Cl)C(=O)O)c1
4. O=C(NCc1cccc(O)c1)c1ccc(C(=O)N[C@@H](CNC(=O)c2ccco2)C(=O)O)c(Cl)c1
5. O=C(NCc1cccc(O)c1)c1ccc(C(=O)N[C@@H](CNC(=O)c2ccc(Br)o2)C(=O)O)c(Cl)c1

7.59
8.19
7.80
7.74
7.68

Hi there! I need pIC50 for each item below, if you can.
1. CN(C)c1ccc(C(=O)NC[C@H](NC(=O)c2ccc(C(=O)NCc3cccc(O)c3)cc2Cl)C(=O)O)cc1
2. O=C(NCc1cccc(O)c1)c1ccc(C(=O)N[C@@H](CNC(=O)c2ccsc2)C(=O)O)c(Cl)c1
3. O=C(NC[C@H](NC(=O)c1c(F)cccc1Cl)C(=O)O)c1ccc2[nH]nnc2c1
4. Nc1cccc(CNC(=O)c2ccc(C(=O)N[C@@H](CNC(=O)c3cccs3)C(=O)O)c(Br)c2)c1
5. C/C=C/C(=O)NC[C@H](NC(=O)c1ccc(C(=O)NCc2cccc(O)c2)cc1Cl)C(=O)O

1. 6.91
2. 7.92
3. 6.56
4. 7.15
5. 7.52

Working through the 7 molecules below one at a time, give pIC50 for each.
1. O=C(NCc1ccc(C(=O)N[C@@H](CNC(=O)c2ccccc2)C(=O)O)c(Cl)c1)c1cc(O)cc(O)c1
2. O=C(NCc1cccc(O)c1)c1ccc(C(=O)N[C@@H](CNC(=O)C2(c3ccccc3)CCCC2)C(=O)O)c(Cl)c1
3. O=C(NCc1cccc(O)c1)c1ccc(C(=O)N[C@@H](CNC(=O)c2cccs2)C(=O)O)c(Cl)c1 [Example 305, sodium salt]
4. O=C(NCc1cccc(O)c1)c1ccc(C(=O)N[C@@H](CNC(=O)C2CCNCC2)C(=O)O)c(Cl)c1
5. O=C(O)c1cccc(C(=O)NC[C@H](NC(=O)c2ccc(C(=O)NCc3cccc(O)c3)cc2Cl)C(=O)O)c1
6. O=C(CCc1ccccc1)c1ccc(C(=O)N[C@@H](CNC(=O)c2cccs2)C(=O)O)c(Cl)c1
7. CC(=O)Nc1nc(C)c(S(=O)(=O)NC[C@H](NC(=O)c2ccc(C(=O)N[C@H](C)c3cccc4ccccc34)cc2Cl)C(=O)O)s1

7.21
7.68
7.72
7.82
7.09
7.12
5.81

Dear reader, for each entry below, please note its pIC50.
1. O=C(NCc1cccc(O)c1)c1ccc(C(=O)N[C@@H](CNC(=O)C2CCC2)C(=O)O)c(Cl)c1
2. NCCCC[C@H](N)C(=O)NC[C@H](NC(=O)c1ccc(C(=O)NCc2cccc(O)c2)cc1Cl)C(=O)O

1. 7.49
2. 7.32

The values you see were collected from patent US20040006236A1.
